- Measured On: NF-kB p65 (RelA) (UniProt Q04206 Q04206:1-551)
- Sequence (Q04206 whole entry, one chain of several): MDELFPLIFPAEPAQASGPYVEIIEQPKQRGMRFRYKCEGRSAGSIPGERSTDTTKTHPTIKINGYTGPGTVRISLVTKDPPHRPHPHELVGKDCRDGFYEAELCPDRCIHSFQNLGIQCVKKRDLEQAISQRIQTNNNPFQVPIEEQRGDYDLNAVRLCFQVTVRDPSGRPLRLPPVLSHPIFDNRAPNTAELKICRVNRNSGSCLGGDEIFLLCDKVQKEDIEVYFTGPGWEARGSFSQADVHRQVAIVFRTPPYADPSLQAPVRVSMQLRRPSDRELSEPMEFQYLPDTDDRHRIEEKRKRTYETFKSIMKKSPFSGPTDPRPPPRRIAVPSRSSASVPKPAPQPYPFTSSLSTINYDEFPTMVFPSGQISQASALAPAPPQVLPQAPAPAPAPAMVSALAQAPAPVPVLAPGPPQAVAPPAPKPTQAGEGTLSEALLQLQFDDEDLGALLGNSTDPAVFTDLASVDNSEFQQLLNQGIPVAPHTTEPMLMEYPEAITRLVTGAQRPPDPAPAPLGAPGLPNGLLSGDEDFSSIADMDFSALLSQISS
- Assay Name: competition; primary screen >5
- Test Context: protein: extract; tags: TPA and CI-stimulated Jurkat nuclear extract, Active Motif TransAM kit
Value Type: IC50

### Prompt Give the measured IC50 of SODN83 (dsDNA, PS all bonds, both strands) DNA 1: CAAGTAGGGATTTCCCATAC DNA 2: GTATGGGAAATCCCTACTTG .
### Response 7.33 nM

Data origin: patent US20100167390
